IC50 values for the compounds below.
target: wild-type EZH2 (Homo sapiens (Human)); assay: radiometric assay, activity to wild-type EZH2 of PRC2; conditions: read-out: Wild-type EZH2 IC50 Nanomoles per Liter
Sequence (Q15910 whole entry): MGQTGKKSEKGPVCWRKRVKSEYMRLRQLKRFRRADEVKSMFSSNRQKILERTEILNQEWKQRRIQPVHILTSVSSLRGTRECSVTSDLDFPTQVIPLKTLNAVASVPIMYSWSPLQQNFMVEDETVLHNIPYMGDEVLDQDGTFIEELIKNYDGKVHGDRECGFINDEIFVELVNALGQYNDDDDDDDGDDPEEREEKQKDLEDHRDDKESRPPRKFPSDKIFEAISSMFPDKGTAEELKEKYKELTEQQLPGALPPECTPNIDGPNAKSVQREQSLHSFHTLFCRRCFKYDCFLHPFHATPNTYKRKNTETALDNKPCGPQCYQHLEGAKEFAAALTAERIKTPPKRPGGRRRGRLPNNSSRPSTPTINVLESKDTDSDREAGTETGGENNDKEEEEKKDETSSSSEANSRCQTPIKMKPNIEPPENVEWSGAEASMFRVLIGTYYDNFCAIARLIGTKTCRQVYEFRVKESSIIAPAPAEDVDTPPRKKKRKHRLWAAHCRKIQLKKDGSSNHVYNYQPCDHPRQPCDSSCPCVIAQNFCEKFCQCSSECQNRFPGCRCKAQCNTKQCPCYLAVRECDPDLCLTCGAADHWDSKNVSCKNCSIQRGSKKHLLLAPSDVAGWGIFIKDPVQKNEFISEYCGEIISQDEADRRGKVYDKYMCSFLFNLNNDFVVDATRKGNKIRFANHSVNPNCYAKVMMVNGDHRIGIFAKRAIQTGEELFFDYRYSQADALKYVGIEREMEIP
Sequence (O75530 whole entry partner): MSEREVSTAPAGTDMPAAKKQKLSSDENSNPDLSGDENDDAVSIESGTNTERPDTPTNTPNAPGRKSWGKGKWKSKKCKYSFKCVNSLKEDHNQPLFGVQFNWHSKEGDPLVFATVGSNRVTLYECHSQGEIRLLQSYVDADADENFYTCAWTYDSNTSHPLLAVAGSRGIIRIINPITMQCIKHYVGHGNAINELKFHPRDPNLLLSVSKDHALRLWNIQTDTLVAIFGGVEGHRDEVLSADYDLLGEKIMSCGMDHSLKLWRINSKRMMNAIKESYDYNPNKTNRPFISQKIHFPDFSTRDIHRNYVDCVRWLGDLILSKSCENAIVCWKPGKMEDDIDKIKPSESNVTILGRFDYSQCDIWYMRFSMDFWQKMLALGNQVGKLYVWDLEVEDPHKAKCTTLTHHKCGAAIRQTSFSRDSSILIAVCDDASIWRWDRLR
Sequence (Q15022 whole entry partner): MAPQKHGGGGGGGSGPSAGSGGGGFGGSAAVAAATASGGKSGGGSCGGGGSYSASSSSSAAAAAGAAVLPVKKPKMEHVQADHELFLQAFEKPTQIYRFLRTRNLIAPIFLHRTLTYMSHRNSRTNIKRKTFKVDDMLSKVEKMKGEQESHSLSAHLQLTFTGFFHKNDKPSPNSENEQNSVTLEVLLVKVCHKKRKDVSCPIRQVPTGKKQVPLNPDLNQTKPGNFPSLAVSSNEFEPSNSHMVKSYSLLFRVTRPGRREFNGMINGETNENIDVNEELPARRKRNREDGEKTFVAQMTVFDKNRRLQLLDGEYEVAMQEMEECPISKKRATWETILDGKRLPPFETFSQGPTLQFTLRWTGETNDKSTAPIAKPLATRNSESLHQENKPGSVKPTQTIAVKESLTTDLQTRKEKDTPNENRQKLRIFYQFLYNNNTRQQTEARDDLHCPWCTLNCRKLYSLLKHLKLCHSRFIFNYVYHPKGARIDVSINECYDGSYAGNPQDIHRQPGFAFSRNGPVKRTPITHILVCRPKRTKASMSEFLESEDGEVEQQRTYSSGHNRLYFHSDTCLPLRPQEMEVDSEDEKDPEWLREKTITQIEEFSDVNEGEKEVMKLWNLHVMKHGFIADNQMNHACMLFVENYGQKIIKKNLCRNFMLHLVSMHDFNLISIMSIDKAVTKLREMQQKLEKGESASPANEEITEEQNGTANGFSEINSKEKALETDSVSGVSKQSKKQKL
Give just the numeric value; nM need not be written.

Some entries whose results are on file:
>  <Compound>
CCN(c1cc(-c2ccc3c(c2)N(CCOC)C(=O)C32CCOCC2)cc(C(=O)NCc2c(C)cc(C)[nH]c2=O)c1C)C1CCOCC1

>  <IC50 (nM)>
0.71

$$$$
>  <Compound>
CCN(c1cc(-c2ccc3c(c2)C=CC32CCN(C(C)C)CC2)cc(C(=O)NCc2c(OC)cc(C)[nH]c2=O)c1C)C1CCOCC1

>  <IC50 (nM)>
0.6

$$$$
>  <Compound>
CCN(c1cc(-c2ccc3c(c2)NC(=O)C32CCS(=O)(=O)CC2)cc(C(=O)NCc2c(C)cc(C)[nH]c2=O)c1C)C1CCOCC1

>  <IC50 (nM)>
1.42

$$$$
>  <Compound>
CCN(c1cc(-c2ccc3c(c2)NC(=O)C32CCOCC2)cc(C(=O)NCc2c(C)cc(C)[nH]c2=O)c1C)C1CCN(C)CC1

>  <IC50 (nM)>
1.37

$$$$
>  <Compound>
CCN(c1cc(-c2ccc3c(c2)NC(=O)C32CCN(C(=O)OC(C)(C)C)CC2)cc(C(=O)NCc2c(C)cc(C)[nH]c2=O)c1C)C1CCOCC1

>  <IC50 (nM)>
1.09

$$$$

Switching to the query record.
Task: Quick one: IC50 for CCN(c1cc(-c2ccc3c(c2)NC(=O)C32CCOCC2)cc(C(=O)NCc2c(OC)cc(C)[nH]c2=O)c1C)C1CCC(N(C)CCOC)CC1 (stereo not drawn) ?
Result: 1.26
